All values here come from the RNAGym collection of RNA variant scans (doi:10.1073/pnas.2313332121).

B1: TPR 5TU (parent)
chain: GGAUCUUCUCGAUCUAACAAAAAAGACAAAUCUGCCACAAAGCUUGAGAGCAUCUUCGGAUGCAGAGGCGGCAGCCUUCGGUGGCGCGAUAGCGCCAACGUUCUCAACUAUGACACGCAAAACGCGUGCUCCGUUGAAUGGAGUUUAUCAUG

- Variants of: B1
- test_name: polymerase ribozyme fitness, log enrichment relative to wild type (log ratio); higher = more active; in vitro selection for triplet polymerase activity
This sample holds only a part of the variants without activity.
observed_property: polymerase ribozyme fitness (log ratio)
Write the value as a bare number.

{"columns": ["variant_label", "polymerase ribozyme fitness (log ratio)"],
 "data": [
  ["A21U G136U", -2.65],
  ["A60U C96G", -3.34],
  ["U53A", -0.874],
  ["C54U G92C A121U", -0.244],
  ["C5A A113U", -2.74]
]}

Query: polymerase ribozyme fitness (log ratio); subject: A20U A113U -3.74

Query: polymerase ribozyme fitness (log ratio); subject: C131A A138C U139G -3.67

Query: polymerase ribozyme fitness (log ratio); subject: A98U A150C -2.82

Query: polymerase ribozyme fitness (log ratio); subject: G83C A110G -3.65

Query: polymerase ribozyme fitness (log ratio); subject: A23G A52U -3.51

Query: polymerase ribozyme fitness (log ratio); subject: C54A U144A -1.74

Query: polymerase ribozyme fitness (log ratio); subject: A107G G143U -3.81

Query: polymerase ribozyme fitness (log ratio); subject: A29G G46C A47C C132U U146A -4.16

Query: polymerase ribozyme fitness (log ratio); subject: C96A C116U G136U A150G -4.06

Query: polymerase ribozyme fitness (log ratio); subject: G59C A73G G86U -2.26

Query: polymerase ribozyme fitness (log ratio); subject: A41C C93U C123U -1.59

Query: polymerase ribozyme fitness (log ratio); subject: C5A A16U G59U -1.5

Query: polymerase ribozyme fitness (log ratio); subject: C76U U101A -1.35

Query: polymerase ribozyme fitness (log ratio); subject: U45A C57A C95U -2.12

Query: polymerase ribozyme fitness (log ratio); subject: A52C C118U G143A U144C -3.94

Query: polymerase ribozyme fitness (log ratio); subject: A37U A52C C116G -2.94

Query: polymerase ribozyme fitness (log ratio); subject: U56A C105U C116G -0.192

Query: polymerase ribozyme fitness (log ratio); subject: A40U U82A C95G -1.43
